# experimental target: ScPex13
# procedure text: SPOT peptide array binding signal intensity (averaged, normalized) (arbitrary units (background-subtracted, floor 0; scale differs between SH3 domains)); higher = stronger binding of the SH3 domain to the peptide
Could you label it criterion met if measured SPOT peptide array binding signal intensity is 60 or higher, and criterion not met otherwise?

Q: Decide: SPOT peptide array binding signal intensity of `WTQRRGPLVVYAEDN` >= 60?
A: criterion not met

Q: Has `VLRFLGFPLPIFEKG` a recorded SPOT peptide array binding signal intensity greater than or equal to 60?
A: criterion not met

Q: Hi team, for `VRTRRRPPPPPIPST` , is the recorded SPOT peptide array binding signal intensity at or above 60?
A: criterion met

Q: Quick check: does `VYTRTAFQIPGDDKI` have SPOT peptide array binding signal intensity greater than or equal to 60?
A: criterion not met

Q: Threshold query (SPOT peptide array binding signal intensity >= 60) on `LASNSPPVYPKRIRH`
A: criterion not met

Q: Would you say `NFFRKKLGIPRKLKR` shows SPOT peptide array binding signal intensity at minimum 60?
A: criterion not met

Q: Is SPOT peptide array binding signal intensity at least 60? Consider `DTFLPPPPPPPSNFE`
A: criterion met
